tested on: nitrosoamine-induced pancreatic cancer; test: laser irradiation to the extirpated organ (excited fluorescent spectrum, N2-PLS measurement), tumor to tissue ratio; format: in vivo, Golden hamsters; conditions: i.v. 25 mg/kg bodyweight, organs extirpated at 24 hours after administration
Label 1 when tumor/tissue cancer/ lung is strictly below 4; at or above that, label 0.

tumor/tissue cancer/ lung strictly < 4 for this molecule? CCCCCCCCCCOC(C)C1=C(C)c2cc3[nH]c(cc4nc(cc5[nH]c(cc1n2)c(C)c5C(C)OCCCCCCCCCC)C(C)=C4CCC(=O)NC(CC(=O)O)C(=O)O)c(CCC(=O)NC(CC(=O)O)C(=O)O)c3C.[Ga] (stereo not drawn) 0

tumor/tissue cancer/ lung strictly < 4 for this molecule? CCCCOC(C)C1=C(C)C2=Cc3c(C(C)OCCCC)c(C)c4[n]3[Ga][n]3c(c(C)c(CCC(=O)NC(CC(=O)O)C(=O)O)c3=CC3=NC(=C4)C(C)=C3CCC(=O)NC(CC(=O)O)C(=O)O)=CC1=N2 (stereo not drawn) 0

tumor/tissue cancer/ lung strictly < 4 for this molecule? COC(C)C1=C(C)C2=Cc3c(C(C)OC)c(C)c4[n]3[Ga][n]3c(c(C)c(CCC(=O)NC(CC(=O)O)C(=O)O)c3=CC3=NC(=C4)C(C)=C3CCC(=O)NC(CC(=O)O)C(=O)O)=CC1=N2 (stereo not drawn) 1

tumor/tissue cancer/ lung strictly < 4 for this molecule? CC1=C(CCC(=O)NC(CC(=O)O)C(=O)O)C2=NC1=Cc1c(C)c(C(C)OC(C)C)c3[n]1[Ga][n]1c(c(C)c(CCC(=O)NC(CC(=O)O)C(=O)O)c1=C2)=CC1=NC(=C3)C(C)=C1C(C)OC(C)C (stereo not drawn) 1

tumor/tissue cancer/ lung strictly < 4 for this molecule? CCCCCCCCCOC(C)C1=C(C)c2cc3[nH]c(cc4nc(cc5[nH]c(cc1n2)c(C)c5C(C)OCCCCCCCCC)C(C)=C4CCC(=O)NC(CC(=O)O)C(=O)O)c(CCC(=O)NC(CC(=O)O)C(=O)O)c3C.[Ga] (stereo not drawn) 1

tumor/tissue cancer/ lung strictly < 4 for this molecule? CCCCCCCCOC(C)C1=C(C)C2=Cc3c(C(C)OCCCCCCCC)c(C)c4[n]3[Ga][n]3c(c(C)c(CCC(=O)NC(CC(=O)O)C(=O)O)c3=CC3=NC(=C4)C(C)=C3CCC(=O)NC(CC(=O)O)C(=O)O)=CC1=N2 (stereo not drawn) 1

tumor/tissue cancer/ lung strictly < 4 for this molecule? C=CC1=C(C)C2=Cc3c(C(C)OCCO)c(C)c4[n]3[Ga][n]3c(c(C)c(CCC(=O)NC(CC(=O)O)C(=O)O)c3=CC3=NC(=C4)C(C)=C3CCC(=O)NC(CC(=O)O)C(=O)O)=CC1=N2 (stereo not drawn) 1

tumor/tissue cancer/ lung strictly < 4 for this molecule? CCCCCCOC(C)C1=C(C)C2=Cc3c(C(C)OCCCCCC)c(C)c4[n]3[Ga][n]3c(c(C)c(CCC(=O)NC(CC(=O)O)C(=O)O)c3=CC3=NC(=C4)C(C)=C3CCC(=O)NC(CC(=O)O)C(=O)O)=CC1=N2 (stereo not drawn) 0

tumor/tissue cancer/ lung strictly < 4 for this molecule? CC(C)=CCC/C(C)=C/COC(C)C1=C(C)C2=Cc3c(C(C)OC/C=C(\C)CCC=C(C)C)c(C)c4[n]3[Ga][n]3c(c(C)c(CCC(=O)NC(CC(=O)O)C(=O)O)c3=CC3=NC(=C4)C(C)=C3CCC(=O)NC(CC(=O)O)C(=O)O)=CC1=N2 (stereo not drawn) 0

tumor/tissue cancer/ lung strictly < 4 for this molecule? CC1=C(CCC(=O)NC(CC(=O)O)C(=O)O)C2=NC1=Cc1c(C)c(C(C)OCCC(C)CCCC(C)C)c3[n]1[Ga][n]1c(c(C)c(CCC(=O)NC(CC(=O)O)C(=O)O)c1=C2)=CC1=NC(=C3)C(C)=C1C(C)OCCC(C)CCCC(C)C (stereo not drawn) 0

tumor/tissue cancer/ lung strictly < 4 for this molecule? CCCOC(C)C1=C(C)C2=Cc3c(C(C)OCCC)c(C)c4[n]3[Ga][n]3c(c(C)c(CCC(=O)NC(CC(=O)O)C(=O)O)c3=CC3=NC(=C4)C(C)=C3CCC(=O)NC(CC(=O)O)C(=O)O)=CC1=N2 (stereo not drawn) 1

tumor/tissue cancer/ lung strictly < 4 for this molecule? CCCCCCCCCCCCOC(C)C1=C(C)c2cc3[nH]c(cc4nc(cc5[nH]c(cc1n2)c(C)c5C(C)OCCCCCCCCCCCC)C(C)=C4CCC(=O)NC(CC(=O)O)C(=O)O)c(CCC(=O)NC(CC(=O)O)C(=O)O)c3C.[Ga] (stereo not drawn) 0

tumor/tissue cancer/ lung strictly < 4 for this molecule? CCCCCCCOC(C)C1=C(C)C2=Cc3c(C(C)OCCCCCCC)c(C)c4[n]3[Ga][n]3c(c(C)c(CCC(=O)NC(CC(=O)O)C(=O)O)c3=CC3=NC(=C4)C(C)=C3CCC(=O)NC(CC(=O)O)C(=O)O)=CC1=N2 (stereo not drawn) 1

tumor/tissue cancer/ lung strictly < 4 for this molecule? CC(C)=CCCC(C)CCOC(C)C1=C(C)C2=Cc3c(C(C)OCCC(C)CCC=C(C)C)c(C)c4[n]3[Ga][n]3c(c(C)c(CCC(=O)NC(CC(=O)O)C(=O)O)c3=CC3=NC(=C4)C(C)=C3CCC(=O)NC(CC(=O)O)C(=O)O)=CC1=N2 (stereo not drawn) 0

tumor/tissue cancer/ lung strictly < 4 for this molecule? CCOC(C)C1=C(C)C2=Cc3c(C(C)OCC)c(C)c4[n]3[Ga][n]3c(c(C)c(CCC(=O)NC(CC(=O)O)C(=O)O)c3=CC3=NC(=C4)C(C)=C3CCC(=O)NC(CC(=O)O)C(=O)O)=CC1=N2 (stereo not drawn) 1

tumor/tissue cancer/ lung strictly < 4 for this molecule? CC1=C(CCC(=O)NC(CC(=O)O)C(=O)O)C2=NC1=Cc1c(C)c(C(C)OCCO)c3[n]1[Ga][n]1c(c(C)c(CCC(=O)NC(CC(=O)O)C(=O)O)c1=C2)=CC1=NC(=C3)C(C)=C1C(C)OCCO (stereo not drawn) 1

tumor/tissue cancer/ lung strictly < 4 for this molecule? CC1=C(CCC(=O)NC(CC(=O)O)C(=O)O)C2=NC1=Cc1c(C)c(C(C)OCCc3ccccc3)c3[n]1[Ga][n]1c(c(C)c(CCC(=O)NC(CC(=O)O)C(=O)O)c1=C2)=CC1=NC(=C3)C(C)=C1C(C)OCCc1ccccc1 (stereo not drawn) 1
